tested on: A549 NSCLC; experiment: NCI tumour cell line growth inhibition, 48 h

# compound, testedOn, GI50
data = [
    ("CC1(C)CCc2c(c3c(c4c(=O)c(O)c(-c5ccc(O)cc5)oc24)OC(C)(C)CC3)O1", "A549 NSCLC", "> 100 µM"),
    ("Cc1cc(I)cc(CN(C)CCCCN2CCCCC2)c1O", "A549 NSCLC", "27.4 µM"),
    ("COc1cc(CNc2cnc3cc(N)cc(N)c3n2)cc(OC)c1", "A549 NSCLC", "33 µM"),
    ("O=C1CC(c2ccc3c(c2)OCO3)Nc2ccccc21 (stereo unspecified)", "A549 NSCLC", "17.1 µM"),
    ("COC(=O)[C@@H]1[C@H](O)[C@H](C)[C@H](O)[C@@](C)(O)/C=C\\C=C(C)C(=O)Nc2c(C)c(OC(C)=O)c3c(c2O)C(=O)C(C)=C2OCOC(=C23)C(C)=C[C@@](C)(O)[C@H](O)[C@@H](C)[C@H]1OC(C)=O", "A549 NSCLC", "> 66.9 µM"),
    ("O=S(=O)(NC1=NCCN1C(=S)SN1CCn2c1nsc2=S)c1ccc(OC(F)(F)F)cc1", "A549 NSCLC", "21.1 µM"),
    ("COc1ccc(-c2nc3sccn3c2/C(N)=N/C(=N)N)cc1OC", "A549 NSCLC", "> 100 µM"),
    ("Cc1ccc(C(=O)/C(=C/c2ccc([N+](=O)[O-])cc2)SCc2ccc(Cl)cc2)cc1", "A549 NSCLC", "98.5 µM"),
    ("O=C([O-])CC(=O)[O-].O=C([O-])CC(=O)[O-].[K+].[Pd+2]", "A549 NSCLC", "> 100 µM"),
    ("O=C1C(Cl)=C(Nc2cccc(Cl)c2)C(=O)N1Cc1ccc(Cl)cc1Cl", "A549 NSCLC", "3.85 µM"),
    ("COC1=CC(=O)c2nc(-c3ccncc3)[nH]c2C1=O", "A549 NSCLC", "> 100 µM"),
]
